Assay: in vivo
Set-up: species or system Minipigs
Conditions: minipig, Tofacitinib concentration
Observable: concentration at 4 h (ng/mL)
Answer with a number only, understood to be in ng/mL.

Name the reported concentration at 4 h value associated with the compound C[C@@H]1CCN(C(=O)CC#N)C[C@@H]1N(C)c1ncnc2[nH]ccc12
1.48

###

Assay: in vivo
Parameters: species or system Minipigs
Conditions: minipig, Tofacitinib concentration
Observable: concentration at 8 h (ng/mL)
Answer with a number only, understood to be in ng/mL.

Name the reported concentration at 8 h value associated with the molecule C[C@@H]1CCN(C(=O)CC#N)C[C@@H]1N(C)c1ncnc2[nH]ccc12
1.32
